# test system: CDK4 (Homo sapiens, UniProt P11802+Q16531)
# Sequence (P11802 2-303 limits assumed): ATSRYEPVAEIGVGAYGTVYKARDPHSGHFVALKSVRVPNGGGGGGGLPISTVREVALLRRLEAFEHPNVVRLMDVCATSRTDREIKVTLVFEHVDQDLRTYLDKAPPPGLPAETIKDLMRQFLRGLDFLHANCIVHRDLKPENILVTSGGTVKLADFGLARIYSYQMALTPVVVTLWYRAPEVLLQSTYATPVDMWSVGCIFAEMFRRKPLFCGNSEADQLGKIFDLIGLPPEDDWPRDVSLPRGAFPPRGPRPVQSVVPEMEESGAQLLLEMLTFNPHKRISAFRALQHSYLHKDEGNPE
# Sequence (P24385 whole entry partner): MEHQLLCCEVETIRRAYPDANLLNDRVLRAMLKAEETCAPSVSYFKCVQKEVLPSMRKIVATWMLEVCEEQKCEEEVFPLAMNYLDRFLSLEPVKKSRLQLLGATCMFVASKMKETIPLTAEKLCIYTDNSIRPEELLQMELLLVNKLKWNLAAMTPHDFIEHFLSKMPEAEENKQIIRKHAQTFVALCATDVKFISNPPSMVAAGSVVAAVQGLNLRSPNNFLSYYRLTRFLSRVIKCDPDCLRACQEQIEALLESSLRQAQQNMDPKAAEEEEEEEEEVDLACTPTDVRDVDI
# Sequence (Q16531 2-1140 limits assumed): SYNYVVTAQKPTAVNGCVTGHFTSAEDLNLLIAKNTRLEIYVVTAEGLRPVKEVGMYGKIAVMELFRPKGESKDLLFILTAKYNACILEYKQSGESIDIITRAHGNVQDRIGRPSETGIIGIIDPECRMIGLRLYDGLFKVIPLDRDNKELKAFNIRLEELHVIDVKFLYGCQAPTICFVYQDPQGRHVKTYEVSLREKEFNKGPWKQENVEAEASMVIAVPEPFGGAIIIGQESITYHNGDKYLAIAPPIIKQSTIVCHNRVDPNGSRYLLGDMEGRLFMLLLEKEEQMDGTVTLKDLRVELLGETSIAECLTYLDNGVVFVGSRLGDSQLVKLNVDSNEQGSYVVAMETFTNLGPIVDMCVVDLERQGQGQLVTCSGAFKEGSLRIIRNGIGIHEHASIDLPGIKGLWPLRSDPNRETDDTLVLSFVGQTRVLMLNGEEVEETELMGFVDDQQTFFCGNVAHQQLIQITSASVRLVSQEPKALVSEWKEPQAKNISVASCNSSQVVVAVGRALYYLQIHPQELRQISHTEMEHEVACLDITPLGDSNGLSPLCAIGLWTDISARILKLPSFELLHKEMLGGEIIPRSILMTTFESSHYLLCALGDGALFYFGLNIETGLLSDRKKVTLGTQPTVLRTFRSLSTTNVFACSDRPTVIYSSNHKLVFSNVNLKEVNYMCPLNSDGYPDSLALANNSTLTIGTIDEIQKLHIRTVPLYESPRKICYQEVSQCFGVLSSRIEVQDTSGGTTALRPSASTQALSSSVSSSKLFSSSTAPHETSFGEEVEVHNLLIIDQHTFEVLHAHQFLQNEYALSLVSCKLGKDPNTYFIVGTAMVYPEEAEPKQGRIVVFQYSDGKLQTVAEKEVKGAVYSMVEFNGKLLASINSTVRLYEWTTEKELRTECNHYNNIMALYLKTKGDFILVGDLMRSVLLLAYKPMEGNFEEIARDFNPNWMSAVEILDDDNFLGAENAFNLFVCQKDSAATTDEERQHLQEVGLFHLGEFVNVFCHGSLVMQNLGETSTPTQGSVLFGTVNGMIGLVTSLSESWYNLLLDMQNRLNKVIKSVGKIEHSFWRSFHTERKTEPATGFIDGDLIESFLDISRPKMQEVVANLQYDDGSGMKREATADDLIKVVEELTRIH
# assay name: CDK4 percentage degradation in Calu-1 cells (Table 6)
# Assay type: cell-based
# Set-up: Cells that express cyclin D1-3 and CDK4/6 proteins were treated with heterobifunctional compounds; endogenous in cells; host or cells: Calu-1
# test settings: 40 nM, 16 hours
measurement name: inhibition at 0.04 µM

# count of solved cases: 4
INSERT INTO measurements (compound, measurement_name, result) VALUES
  ('CNc1ccc(C(=O)Nc2ccc(N(C)C)nn2)c(NC2CC(NC(=O)CCN3CCN(c4ccc(Nc5ncc6c(C)c(C(C)=O)c(=O)n(C7CCCC7)c6n5)nc4)CC3)C2)n1 (centres unmarked)', 'inhibition at 0.04 µM', '50 to 80%'),
  ('CNc1ccc(C(=O)Nc2ccc(N(C)C)nn2)c(NCCCCCNC(=O)C(C)N2CCN(c3ccc(Nc4ncc5c(C)c(C(C)=O)c(=O)n(C6CCCC6)c5n4)nc3)CC2)n1 (centres unmarked)', 'inhibition at 0.04 µM', '50 to 80%'),
  ('CNc1ccc(C(=O)Nc2ccc(OC)c(C)n2)c(NC2CC3(CC(NC(=O)CN4CCN(c5ccc(Nc6ncc7c(C)c(C(C)=O)c(=O)n(C8CCCC8)c7n6)nc5)CC4)C3)C2)n1 (centres unmarked)', 'inhibition at 0.04 µM', '30 to 50%'),
  ('CNc1ccc(C(=O)Nc2ccc(N(C)C)nn2)c(NC2CCC(NC(=O)CN3CCN(c4ccc(Nc5ncc6c(C)c(C(C)=O)c(=O)n(C7CCCC7)c6n5)nc4)CC3)C2)n1 (centres unmarked)', 'inhibition at 0.04 µM', '50 to 80%');

Ask: Using known records, supply inhibition at 0.04 µM for `[2H]C([2H])([2H])Nc1ccc(C(=O)Nc2ccc(N(C)C)nn2)c(NC2CC3(C2)CN(C(=O)C(F)(F)CN2CCN(c4ccc(Nc5ncc6c(C)c(C(C)=O)c(=O)n(C7CCCC7)c6n5)nc4)CC2)C3)n1`
Reply: 50 to 80%

###

# test system: CDK4 (Homo sapiens, UniProt P11802+Q16531)
# assay name: CDK4 percentage degradation in Calu-1 cells (Table 6)
# Type: cell-based
# Design: Cells that express cyclin D1-3 and CDK4/6 proteins were treated with heterobifunctional compounds; endogenous in cells; host or cells: Calu-1
# test settings: 40 nM, 16 hours
measurement name: inhibition at 0.04 µM

# count of solved cases: 4
INSERT INTO measurements (compound, measurement_name, result) VALUES
  ('CNc1ccc(C(=O)Nc2cn(C)cn2)c(NC2CC3(CC(NC(=O)CN4CCN(c5ccc(Nc6ncc7c(C)c(C(C)=O)c(=O)n(C8CCCC8)c7n6)nc5)CC4)C3)C2)n1 (stereo not drawn) [CPD-152]', 'inhibition at 0.04 µM', '30 to 50%'),
  ('CNc1ccc(C(=O)Nc2ccc(N3CCCC3)nn2)c(NCCCCCNC(=O)CN2CCN(c3ccc(Nc4ncc5c(C)c(C(C)=O)c(=O)n(C6CCCC6)c5n4)nc3)CC2)n1 [CPD-17]', 'inhibition at 0.04 µM', '< 30%'),
  ('CNc1ccc(C(=O)Nc2cc(C)cc(C3CC3)n2)c(NCCCCCNC(=O)CN2CCN(c3ccc(Nc4ncc5c(C)c(C(C)=O)c(=O)n(C6CCCC6)c5n4)nc3)CC2)n1 [CPD-53]', 'inhibition at 0.04 µM', '50 to 80%'),
  ('CNc1ccc(C(=O)Nc2cn(C(C)C)c(C)n2)c(NC2CC3(CC(NC(=O)CN4CCN(c5ccc(Nc6ncc7c(C)c(C(C)=O)c(=O)n(C8CCCC8)c7n6)nc5)CC4)C3)C2)n1 (stereo not drawn) [CPD-238]', 'inhibition at 0.04 µM', '< 30%');

Now turn to the next compound.
Ask: Using known records, supply inhibition at 0.04 µM for CC(=O)c1c(C)c2cnc(Nc3ccc(N4CCC5(CC4)CC5C(=O)N4CC5(CC(Nc6nc(NC(C)C)ccc6C(=O)Nc6ccc(N(C)C)nn6)C5)C4)cn3)nc2n(C2CCCC2)c1=O (stereo not drawn) [CPD-411]
Reply: < 30%

###

# test system: CDK4 (Homo sapiens, UniProt P11802+Q16531)
# assay name: CDK4 percentage degradation in Calu-1 cells (Table 6)
# Assay type: cell-based
# Set-up: Cells that express cyclin D1-3 and CDK4/6 proteins were treated with heterobifunctional compounds; endogenous in cells; host or cells: Calu-1
# test settings: 40 nM, 16 hours
Listed here are compounds together with their documented inhibition at 0.04 µM.

Ask: Using known records, supply inhibition at 0.04 µM for CNc1ccc(C(=O)Nc2ccc(N(C)C)nn2)c(NC2CC(NC(=O)C(C)N3CCN(c4ccc(Nc5ncc6c(C)c(C(C)=O)c(=O)n(C7CCCC7)c6n5)nc4)CC3)C2)n1 (centres unmarked)
Reply: 50 to 80%

Ask: Using known records, supply inhibition at 0.04 µM for `CNc1ccc(C(=O)Nc2ccc(N(C)C)nn2)c(NC[C@H]2CC[C@H](CNC(=O)N3CCN(c4ccc(Nc5ncc6c(C)c(C(C)=O)c(=O)n(C7CCCC7)c6n5)nc4)CC3)CC2)n1`
Reply: < 30%

Ask: Using known records, supply inhibition at 0.04 µM for CNc1ccc(C(=O)Nc2ccc(N(C)C)nn2)c(NC2CC(Cn3cc(CN4CCN(c5ccc(Nc6ncc7c(C)c(C(C)=O)c(=O)n(C8CCCC8)c7n6)nc5)CC4)nn3)C2)n1 (centres unmarked)
Reply: 50 to 80%

Ask: Using known records, supply inhibition at 0.04 µM for CNc1ccc(C(=O)Nc2cc(C(F)(F)F)n(C)n2)c(NC2CC3(CC(NC(=O)CN4CCN(c5ccc(Nc6ncc7c(C)c(C(C)=O)c(=O)n(C8CCCC8)c7n6)nc5)CC4)C3)C2)n1 (centres unmarked)
Reply: < 30%

Ask: Using known records, supply inhibition at 0.04 µM for `CC(=O)c1c(C)c2cnc(Nc3ccc(N4CCN(CCC(=O)N5CC6(CC(Nc7nc(NC(C)C)ccc7C(=O)Nc7ccc(N(C)C)nn7)C6)C5)CC4)cn3)nc2n(C2CCCC2)c1=O`
Reply: 30 to 50%

Ask: Using known records, supply inhibition at 0.04 µM for `CC(=O)c1c(C)c2cnc(Nc3ccc(N4CCN(CC(=O)NCCCCCNc5nc(NC(C)C)ccc5C(=O)Nc5ccc(N(C)C)nn5)CC4)cn3)nc2n(C2CCCC2)c1=O`
Reply: 50 to 80%

Ask: Using known records, supply inhibition at 0.04 µM for `CNc1ccc(C(=O)Nc2cc(C)n(C)n2)c(NCCCCCNC(=O)CN2CCN(c3ccc(Nc4ncc5c(C)c(C(C)=O)c(=O)n(C6CCCC6)c5n4)nc3)CC2)n1`
Reply: 50 to 80%

Ask: Using known records, supply inhibition at 0.04 µM for CNc1cccc(NC(=O)c2ccc(NC)nc2NC2CC3(CC(NC(=O)CN4CCN(c5ccc(Nc6ncc7c(C)c(C(C)=O)c(=O)n(C8CCCC8)c7n6)nc5)CC4)C3)C2)n1 (centres unmarked)
Reply: 30 to 50%

Ask: Using known records, supply inhibition at 0.04 µM for CNc1ccc(C(=O)NC2CC(CN(C)C)C2)c(NCCCCCNC(=O)CN2CCN(c3ccc(Nc4ncc5c(C)c(C(C)=O)c(=O)n(C6CCCC6)c5n4)nc3)CC2)n1 (centres unmarked)
Reply: < 30%

Ask: Using known records, supply inhibition at 0.04 µM for `CNc1ccc(C(=O)Nc2ccc(C)c(=O)[nH]2)c(NCCCCCNC(=O)CN2CCN(c3ccc(Nc4ncc5c(C)c(C(C)=O)c(=O)n(C6CCCC6)c5n4)nc3)CC2)n1`
Reply: < 30%

Ask: Using known records, supply inhibition at 0.04 µM for `CNc1ccc(C(=O)Nc2ccc(N(C)C)nn2)c(NC[C@H]2CC[C@@H](NC(=O)CN3CCN(c4ccc(Nc5ncc6c(C)c(C(C)=O)c(=O)n(C7CCCC7)c6n5)nc4)CC3)CC2)n1`
Reply: 50 to 80%

###

# test system: CDK4 (Homo sapiens, UniProt P11802+Q16531)
# assay name: CDK4 percentage degradation in Calu-1 cells (Table 6)
# Assay type: cell-based
# Set-up: Cells that express cyclin D1-3 and CDK4/6 proteins were treated with heterobifunctional compounds; endogenous in cells; host or cells: Calu-1
# test settings: 40 nM, 16 hours
# Description: Calu-(cells were treated with heterobifunctional compounds at 40 nM or 200 nM for 16 hours A: protein percentage degradation […]; B: protein percentage degradation <80%, and ≥50%; C: protein percentage degradation <50%, and ≥30%; D; protein percentage degradation […]; -, data not available. Calu-1, T47D, MCF7, HCC1428 and other cells were cultured at 37° C. with 5% CO2 in RPMI 1640 or DMEM medium supplemented with 10% fetal bovine serum. […]
Listed here are compounds together with their documented inhibition at 0.04 µM.

# count of solved cases: 2
INSERT INTO results (compound, result) VALUES
  ('CNc1ccc(C(=O)Nc2ccc(N(C)C)nn2)c(NC2CC3(C2)CC(OC(C)C(=O)N2CCN(c4ccc(Nc5ncc6c(C)c(C(C)=O)c(=O)n(C7CCCC7)c6n5)nc4)CC2)C3)n1 (stereo not drawn)', '50 to 80%'),
  ('CNc1ccc(C(=O)Nc2cccc(C)n2)c(NC2CC3(CC(NC(=O)CN4CCN(c5ccc(Nc6ncc7c(C)c(C(C)=O)c(=O)n(C8CCCC8)c7n6)nc5)CC4)C3)C2)n1 (stereo not drawn)', '30 to 50%');

Now turn to the next compound.
Ask: Using known records, supply inhibition at 0.04 µM for `CNc1ccc(C(=O)Nc2cc(C)n(C)n2)c(NC2CC3(C2)CN(C(=O)CCN2CCN(c4ccc(Nc5ncc6c(C)c(C(C)=O)c(=O)n(C7CCCC7)c6n5)nc4)CC2)C3)n1`
Reply: 50 to 80%
